- system.tested: 5-lipoxygenase (Glycine max)
- method.summary: 5-Lipoxygenase inhibitory assay (linoleic acid, 234 nm)
- Format: biochemical, Soybean
- stated.conditions: read-out: 5-Lipoxygenase Inhibitory (% at 80 µmol/L)
property.name: inhibition at 80 µM (%)

// known answers, use as guide
[
  {
    "compound": "O=C(/C=C/c1ccc(O)c(O)c1)O[C@@H]1C[C@](O)(C(=O)O)C[C@@H](O)[C@H]1O",
    "inhibition at 80 µM (%)": 17.1
  },
  {
    "compound": "CC(C)(O)[C@@H]1Cc2cc3ccc(=O)oc3cc2O1 [Compound 9, (−)-Marmesin]",
    "inhibition at 80 µM (%)": 0
  }
]

A. COC(=O)/C=C/c1ccc(O)c(O)c1 [Compound 5, Methyl caffeate]
B. C/C(O[C@@H]1O[C@H](CO)[C@@H](O)[C@H](O)[C@H]1O)=C1/C=CC(=O)O1
// query Endpoint returns whichever of A and B has the numerically higher inhibition at 80 µM. Provide the label of your selected option as the answer.
// result B

----------
- method.summary: MTT cytotoxicity assay, OVCAR-3
- Assay type: cell-based
- stated.conditions: human, OVCAR-3 ovary cells; OVCAR-3, MTT; read-out: Cytotoxic Activity (IC50 µmol/L) OVCAR-3
Examples of compounds with documented IC50 at 18 h follow.

[
  {
    "compound": "Cc1ccc(C)c(C=O)c1C [Compound 11, 2,3,6-Trimethylbenzaldehyde]",
    "IC50 at 18 h": "> 100 µmol/L"
  },
  {
    "compound": "O=C(/C=C/c1ccc(O)c(O)c1)O[C@@H]1C[C@](O)(C(=O)O)C[C@@H](OC(=O)/C=C/c2ccc(O)c(O)c2)[C@H]1O [Compound 7, 3,5-O-Dicaffeoylquinic acid]",
    "IC50 at 18 h": "> 100 µmol/L"
  },
  {
    "compound": "O=C(/C=C/c1ccc(O)c(O)c1)O[C@@H]1C[C@](O)(C(=O)O)C[C@@H](O)[C@H]1O [Compound 4, 5-O-Caffeoylquinic acid]",
    "IC50 at 18 h": "> 100 µmol/L"
  },
  {
    "compound": "C/C(O[C@@H]1O[C@H](CO)[C@@H](O)[C@H](O)[C@H]1O)=C1/C=CC(=O)O1 [Compound 1]",
    "IC50 at 18 h": "> 100 µmol/L"
  },
  {
    "compound": "CC(C)=CCOc1c2ccoc2cc2oc(=O)ccc12 [Compound 10, Isoimperatorin]",
    "IC50 at 18 h": "> 100 µmol/L"
  }
]

IC50 at 18 h recorded for this compound, C/C(=C\C(=O)O)CO [Compound 2, 4-Hydroxy-3-methylbut-2-enoic acid] , is > 100 µmol/L

Entry COC(=O)[C@]1(O)C[C@@H](OC(=O)/C=C/c2ccc(O)c(O)c2)[C@@H](O)[C@H](OC(=O)/C=C/c2ccc(O)c(O)c2)C1 [Compound 6, Methyl 3,5-O-Dicaffeoylquinate] — recorded IC50 at 18 h = > 100 µmol/L

Item: COC(=O)/C=C/c1ccc(O)c(O)c1 [Compound 5, Methyl caffeate] | IC50 at 18 h: 25 µmol/L

Documented IC50 at 18 h of COc1cc(-c2oc3cc(O)cc(O)c3c(=O)c2O[C@@H]2O[C@H](CO[C@@H]3O[C@@H](C)[C@H](O)[C@@H](O)[C@H]3O)[C@@H](O)[C@H](O)[C@H]2O)ccc1O [Compound 8] : > 100 µmol/L

The compound listed as CC(C)(O)[C@@H]1Cc2cc3ccc(=O)oc3cc2O1 [Compound 9, (−)-Marmesin] has a reported IC50 at 18 h of > 100 µmol/L

Quick note, IC50 at 18 h for CC/C(=C(\c1ccccc1)c1ccc(OCCN(C)C)cc1)c1ccccc1 [Tamoxifen, tamoxifen, reference compound] landed at 1.3 µmol/L

// CC1=CC(=O)C2CC1(O[C@@H]1O[C@H](CO)[C@@H](O)[C@H](O)[C@H]1O)C2(C)C (stereo partly drawn) [Compound 3, Verbenone-5-O-β-D-glucopyranoside] : IC50 at 18 h value = > 100 µmol/L

----------
- system.tested: 5-lipoxygenase (Glycine max, UniProt P08170)
- Sequence (P08170 whole entry): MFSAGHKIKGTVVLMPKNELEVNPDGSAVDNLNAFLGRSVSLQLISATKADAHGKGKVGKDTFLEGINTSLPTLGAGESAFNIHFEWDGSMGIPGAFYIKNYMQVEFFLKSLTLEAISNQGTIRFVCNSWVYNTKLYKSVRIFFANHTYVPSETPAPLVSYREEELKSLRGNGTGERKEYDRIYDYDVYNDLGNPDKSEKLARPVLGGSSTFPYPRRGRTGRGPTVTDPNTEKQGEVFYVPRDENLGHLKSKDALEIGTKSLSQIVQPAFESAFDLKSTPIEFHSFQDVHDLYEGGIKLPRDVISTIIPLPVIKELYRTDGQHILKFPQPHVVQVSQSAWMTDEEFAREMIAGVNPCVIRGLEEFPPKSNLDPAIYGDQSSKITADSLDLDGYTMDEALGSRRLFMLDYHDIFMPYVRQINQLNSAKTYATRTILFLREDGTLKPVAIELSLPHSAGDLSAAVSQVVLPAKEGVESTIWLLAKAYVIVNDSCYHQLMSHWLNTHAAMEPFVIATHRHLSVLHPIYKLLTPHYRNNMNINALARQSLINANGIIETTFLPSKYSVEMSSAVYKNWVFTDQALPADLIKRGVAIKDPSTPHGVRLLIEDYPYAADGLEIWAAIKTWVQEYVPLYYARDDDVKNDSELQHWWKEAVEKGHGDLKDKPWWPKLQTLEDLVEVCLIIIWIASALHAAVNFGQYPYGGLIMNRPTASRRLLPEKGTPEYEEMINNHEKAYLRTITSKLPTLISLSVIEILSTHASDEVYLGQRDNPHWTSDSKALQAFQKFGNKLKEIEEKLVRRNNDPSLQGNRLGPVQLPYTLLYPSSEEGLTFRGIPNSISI
- method.summary: 5-Lipoxygenase inhibitory assay (linoleic acid, 234 nm)
- Type: biochemical, Soybean
- stated.conditions: read-out: 5-Lipoxygenase Inhibitory (% at 80 µmol/L)
property.name: inhibition at 80 µM (%)

Here's what some known entries look like.
[
  {
    "compound": "CC(C)=CCOc1c2ccoc2cc2oc(=O)ccc12 [Compound 10, Isoimperatorin]",
    "unit.label": "%",
    "observed": 0
  },
  {
    "compound": "COc1cc(-c2oc3cc(O)cc(O)c3c(=O)c2O[C@@H]2O[C@H](CO[C@@H]3O[C@@H](C)[C@H](O)[C@@H](O)[C@H]3O)[C@@H](O)[C@H](O)[C@H]2O)ccc1O [Compound 8]",
    "unit.label": "%",
    "observed": 0
  }
]

I. CC1=CC(=O)C2CC1(O[C@@H]1O[C@H](CO)[C@@H](O)[C@H](O)[C@H]1O)C2(C)C (stereo partly drawn) [Compound 3, Verbenone-5-O-β-D-glucopyranoside]
II. Cc1ccc(C)c(C=O)c1C [Compound 11, 2,3,6-Trimethylbenzaldehyde]
// query Could you point out whether the larger inhibition at 80 µM belongs to I or to II ? Write down the label of the entry you select.
// result I
(I: 12.4%, II: 0%)

----------
Reported values of IC50 at 18 h for individual entries
- method.summary: MTT cytotoxicity assay, IGROV-1
- Type: cell-based
- stated.conditions: human, IGROV-1 ovary cells; IGROV-1, MTT; read-out: Cytotoxic Activity (IC50 µmol/L) IGROV-1

Field: example entries. Status: answers known.
[
  {
    "molecule": "COc1cc(-c2oc3cc(O)cc(O)c3c(=O)c2O[C@@H]2O[C@H](CO[C@@H]3O[C@@H](C)[C@H](O)[C@@H](O)[C@H]3O)[C@@H](O)[C@H](O)[C@H]2O)ccc1O",
    "observed": "> 100 µmol/L"
  },
  {
    "molecule": "COC(=O)[C@]1(O)C[C@@H](OC(=O)/C=C/c2ccc(O)c(O)c2)[C@@H](O)[C@H](OC(=O)/C=C/c2ccc(O)c(O)c2)C1 [Compound 6, Methyl 3,5-O-Dicaffeoylquinate]",
    "observed": "> 100 µmol/L"
  },
  {
    "molecule": "CC(C)=CCOc1c2ccoc2cc2oc(=O)ccc12",
    "observed": "> 100 µmol/L"
  },
  {
    "molecule": "C/C(O[C@@H]1O[C@H](CO)[C@@H](O)[C@H](O)[C@H]1O)=C1/C=CC(=O)O1",
    "observed": "> 100 µmol/L"
  },
  {
    "molecule": "CC(C)(O)[C@@H]1Cc2cc3ccc(=O)oc3cc2O1 [Compound 9, (−)-Marmesin]",
    "observed": "> 100 µmol/L"
  },
  {
    "molecule": "O=C(/C=C/c1ccc(O)c(O)c1)O[C@@H]1C[C@](O)(C(=O)O)C[C@@H](OC(=O)/C=C/c2ccc(O)c(O)c2)[C@H]1O",
    "observed": "> 100 µmol/L"
  },
  {
    "molecule": "Cc1ccc(C)c(C=O)c1C",
    "observed": "> 100 µmol/L"
  },
  {
    "molecule": "CC1=CC(=O)C2CC1(O[C@@H]1O[C@H](CO)[C@@H](O)[C@H](O)[C@H]1O)C2(C)C (stereo partly drawn) [Compound 3, Verbenone-5-O-β-D-glucopyranoside]",
    "observed": "> 100 µmol/L"
  }
]

Looking up C/C(=C\C(=O)O)CO [Compound 2, 4-Hydroxy-3-methylbut-2-enoic acid] , I see its IC50 at 18 h listed as > 100 µmol/L

The recorded IC50 at 18 h for O=C(/C=C/c1ccc(O)c(O)c1)O[C@@H]1C[C@](O)(C(=O)O)C[C@@H](O)[C@H]1O is > 100 µmol/L

For reference, reported IC50 at 18 h for COC(=O)/C=C/c1ccc(O)c(O)c1 [Compound 5, Methyl caffeate] stands at 17.8 µmol/L

Note to self: IC50 at 18 h recorded for CC/C(=C(\c1ccccc1)c1ccc(OCCN(C)C)cc1)c1ccccc1 [Tamoxifen, tamoxifen, reference compound] was 2 µmol/L

----------
List of IC50 at 18 h values.
- method.summary: MTT cytotoxicity assay, HCT-116
- Format: cell-based
- stated.conditions: human, HCT-116 colon carcinoma cells; HCT-116, MTT; read-out: Cytotoxic Activity (IC50 µmol/L) HCT-116

Below: 5 compounds and their reported IC50 at 18 h.
[
  {
    "compound": "O=C(/C=C/c1ccc(O)c(O)c1)O[C@@H]1C[C@](O)(C(=O)O)C[C@@H](OC(=O)/C=C/c2ccc(O)c(O)c2)[C@H]1O",
    "property.name": "IC50 at 18 h",
    "observed": "> 100 µmol/L"
  },
  {
    "compound": "Cc1ccc(C)c(C=O)c1C",
    "property.name": "IC50 at 18 h",
    "observed": "> 100 µmol/L"
  },
  {
    "compound": "COc1cccc2c1C(=O)c1c(O)c3c(c(O)c1C2=O)C[C@@](O)(C(=O)CO)C[C@@H]3O[C@H]1C[C@H](N)[C@H](O)[C@H](C)O1 [Doxorubicin, reference compound]",
    "property.name": "IC50 at 18 h",
    "observed": "0.18 µmol/L"
  },
  {
    "compound": "CC1=CC(=O)C2CC1(O[C@@H]1O[C@H](CO)[C@@H](O)[C@H](O)[C@H]1O)C2(C)C (stereo partly drawn) [Compound 3, Verbenone-5-O-β-D-glucopyranoside]",
    "property.name": "IC50 at 18 h",
    "observed": "> 100 µmol/L"
  },
  {
    "compound": "C/C(=C\\C(=O)O)CO [Compound 2, 4-Hydroxy-3-methylbut-2-enoic acid]",
    "property.name": "IC50 at 18 h",
    "observed": "> 100 µmol/L"
  }
]

get_value(item= O=C(/C=C/c1ccc(O)c(O)c1)O[C@@H]1C[C@](O)(C(=O)O)C[C@@H](O)[C@H]1O , readout=IC50 at 18 h) returns > 100 µmol/L

Memo: COC(=O)[C@]1(O)C[C@@H](OC(=O)/C=C/c2ccc(O)c(O)c2)[C@@H](O)[C@H](OC(=O)/C=C/c2ccc(O)c(O)c2)C1 [Compound 6, Methyl 3,5-O-Dicaffeoylquinate] , reported IC50 at 18 h: > 100 µmol/L

IC50 at 18 h reported for this compound COC(=O)/C=C/c1ccc(O)c(O)c1 [Compound 5, Methyl caffeate] : 22.5 µmol/L

Values compiled from paper PMC6271101.
